Assay: Single dose IV PK, metabolism and excretion of LNP lipids in rats
Assay type: in vivo
Details: rat, plasma and liver, IV bolus of LNP, read-out: apparent terminal t½ in plasma and liver
Observation type: half-life

Prompt: # get_value(readout='half-life', item= CCCCCCCCC(CCCCCC)C(=O)OCCCCCCN(CCCCO)CCCCCCOC(=O)C(CCCCCC)CCCCCCCC (stereo not shown) )
Completion: 144 to 192 h
